study-system: human CB2 receptors (Homo sapiens (Human))
Sequence (P34972 whole entry): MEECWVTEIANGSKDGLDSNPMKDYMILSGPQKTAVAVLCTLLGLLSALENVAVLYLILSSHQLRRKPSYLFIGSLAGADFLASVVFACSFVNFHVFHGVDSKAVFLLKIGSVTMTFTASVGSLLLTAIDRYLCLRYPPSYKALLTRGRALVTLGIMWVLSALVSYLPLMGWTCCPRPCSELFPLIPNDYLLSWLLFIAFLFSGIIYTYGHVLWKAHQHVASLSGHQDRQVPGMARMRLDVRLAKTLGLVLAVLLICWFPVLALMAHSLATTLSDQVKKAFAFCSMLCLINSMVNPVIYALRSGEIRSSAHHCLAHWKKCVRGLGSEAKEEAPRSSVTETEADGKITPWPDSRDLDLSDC
test-name: cAMP assay, CHO cells expressing human CB2 receptors
Type: cell-based
experimental-conditions: functional cAMP assay, CHO cells expressing human CB2; read-out: human CB2 EC50
metric: pEC50
Scale explanation: pEC50 corresponds to minus log10 of a concentration expressed in moles per litre.

For CC(C)CC(CNC(=O)c1ccc(N2CC(F)(F)C2)c(OCC2CC2)n1)C(=O)O (stereo not shown) , what is its reported pEC50?
6.01

For NC(=O)CC1(NC(=O)c2ccc(N3CC(F)(F)C3)c(OCC3CC3)n2)CCSCC1 , what is its reported pEC50?
8.60

For CC(C)CC(CC(=O)OC(C)(C)C)NC(=O)c1ccc(N2CC(F)(F)C2)c(OCC2CC2)n1 (stereo not shown) , what is its reported pEC50?
6.17

For NC(=O)CC(NC(=O)c1ccc(C2CC2)c(OCC2CC2)n1)C1CCCCC1 (single isomer, unassigned; (+)) [Example 18] , what is its reported pEC50?
8.82

For NC(=O)CC1(NC(=O)c2ccc(OC(F)(F)F)c(OCC3CC3)n2)COC1 , what is its reported pEC50?
7.50

For NC(=O)CC1(NC(=O)c2ccc(N3CC(F)(F)C3)c(OCC3CC3)n2)CCNCC1 , what is its reported pEC50?
6.57

For NC(=O)CC(NC(=O)c1ccc(C2CC2)c(OCC2CC2)n1)C1CC1 (single isomer, unassigned; (+)) [Example 28] , what is its reported pEC50?
8.52

For O=C(O)CC1(NC(=O)c2ccc(N3CC(F)(F)C3)c(OCC3CC3)n2)CCC1 , what is its reported pEC50?
6.52

For NC(=O)CC1(NC(=O)c2ccc(C3CC3)c(OCC3CC3)n2)COC1 , what is its reported pEC50?
8.85

For NC(=O)CC1(NC(=O)c2ccc(N3CC(F)(F)C3)c(OCC3CC3)n2)CCS(=O)(=O)CC1 , what is its reported pEC50?
7.26

For NC(=O)CC1(NC(=O)c2ccc(N3CC(F)(F)C3)c(OCC3CC3)n2)CS(=O)(=O)C1 , what is its reported pEC50?
9.00

For CCOC(=O)CC(NC(=O)c1ccc(N2CC(F)(F)C2)c(OCC2CC2)n1)c1ccccc1 (stereo not shown) , what is its reported pEC50?
8.38

For CC(C)(C)[C@@H](CC(N)=O)NC(=O)c1ccc(C2CC2)c(OCC2CC2)n1 , what is its reported pEC50?
7.63

For COC(=O)CC1(NC(=O)c2ccc(C3CC3)c(OCC3CC3)n2)CCN(C(=O)OC(C)(C)C)CC1 , what is its reported pEC50?
6.63

For CC(C)C[C@H](CC(N)=O)NC(=O)c1ccc(C2CC2)c(OCC2CC2)n1 , what is its reported pEC50?
8.37

For CN(C)C(=O)CC1(NC(=O)c2ccc(C(F)(F)F)c(OCC3CC3)n2)COC1 , what is its reported pEC50?
6.01
